B1: TPR 5TU (parent)
chain: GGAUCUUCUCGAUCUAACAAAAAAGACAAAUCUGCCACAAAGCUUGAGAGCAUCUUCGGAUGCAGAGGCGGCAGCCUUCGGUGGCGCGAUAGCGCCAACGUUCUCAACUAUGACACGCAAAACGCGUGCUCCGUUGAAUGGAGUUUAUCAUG

variants of: B1; assay: polymerase ribozyme fitness, log enrichment relative to wild type (log ratio); higher = more active; in vitro selection for triplet polymerase activity
Fewer inactive variants are shown than the library holds.
MEASUREMENT LABEL: polymerase ribozyme fitness (log ratio)
Form rule: numeric answer, no unit written next to it.

QUERY: Sample G83U C96U — what was its polymerase ribozyme fitness (log ratio)?
RESULT: -0.875

QUERY: Can you check G62U C72U C93U A122G next?
RESULT: -3.31

QUERY: Can you check G92C U135C next?
RESULT: -2.88

QUERY: Can you check C38U A41C C132U next?
RESULT: -1.49

QUERY: Can you check U53A A107U U144G next?
RESULT: -2.6
